system: L6; test: Induction of glucose uptake in rat L6 cells assessed as fold increase by measuring 2-NBDG uptake at 0.25 uM preincubated in high glucose medium for 48 hrs followed by compound addition and measured after 24 hrs; format: functional
Exercise: state measured fold change (FC) for each of the compounds provided.
Answer using only a numeral; do not append any unit.

I would be grateful if you could share the reported fold change (FC) for COc1cccc(C2CCc3cc(C4SCCCS4)ccc3O2)c1 (stereo not drawn) .
1

I would be grateful if you could share the reported fold change (FC) for O[C@H]1CS[C@H](c2ccc3c(c2)CCC(c2ccccc2)O3)SC1 (stereo partly drawn) .
1.1

I would be grateful if you could share the reported fold change (FC) for OCCSC(SCCO)c1ccc2c(c1)CCC(c1ccccc1)O2 (stereo not drawn) .
1
